B1: Pistol ribozyme (parent)
chain: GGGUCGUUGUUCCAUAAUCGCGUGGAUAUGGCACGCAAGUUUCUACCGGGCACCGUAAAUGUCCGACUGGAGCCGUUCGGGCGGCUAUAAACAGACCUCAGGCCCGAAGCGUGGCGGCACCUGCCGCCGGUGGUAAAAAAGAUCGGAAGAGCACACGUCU

Variants of: B1
Assay: aptazyme ON/OFF ratio, guanine; higher = stronger switching; co-transcriptional cleavage with and without guanine
Recorded aptazyme ON/OFF ratio for the following variants
The response must contain the number and no unit.

Var: U7G U8G G9C U10C U11A C13G
aptazyme ON/OFF ratio: 1.17

// recorded aptazyme ON/OFF ratio for U8C G9A U10A C12A C13A : 1.17

// recorded aptazyme ON/OFF ratio for U7C U8C G9U U10A C12A C13A : 1.2

// recorded aptazyme ON/OFF ratio for U7G U8G G9C U10G U11G C12A C13U : 1.09

// recorded aptazyme ON/OFF ratio for U7G U8A U10C U11C C12G : 1.29
